protocol: Ratio of IC50 for human 5-HT1B to human 5-HT1D receptors
endpoint_name: Selectivity

Sample answers from the record:
1. O=C1N[C@@H](Cc2ccc3[nH]cc(CCCN4CCC(N[C@@H](CO)c5ccccc5)CC4)c3c2)CO1 :: 73
2. C[C@@H](O)[C@H](NC1CCN(CCCc2c[nH]c3ccc(-n4cnnc4)cc23)CC1)c1ccccc1 :: 53
3. OC[C@@H](NCC1CCN(CCCc2c[nH]c3ccc(-n4cnnc4)cc23)CC1)c1ccccc1 :: 10
4. CC(=O)Nc1ccc([C@H](C)NCC2CCN(CCCc3c[nH]c4ccc(-n5cnnc5)cc34)CC2)cc1 :: 16

P. CNS(=O)(=O)Cc1ccc2[nH]cc(CCCN3CCC(N[C@H](C)c4ccccc4)CC3)c2c1
Q. NC(=O)OC[C@H](NC1CCN(CCCc2c[nH]c3ccc(-n4cnnc4)cc23)CC1)c1ccccc1
Hi team, can someone confirm which has the larger Selectivity: P or Q ? Thanks. Which one? Tell me its label.
Q

1. OC[C@@H](NC1CCN(CCCc2c[nH]c3ccc(-n4cnnc4)cc23)CC1)c1ccccc1
2. c1ccc2c(c1)CCC2NCC1CCN(CCCc2c[nH]c3ccc(-n4cnnc4)cc23)CC1 (stereo not drawn)
Hi team, can someone confirm which has the larger Selectivity: 1 or 2 ? Thanks. Which one? Tell me its label.
1
(1: 46, 2: 23)

I. CC(C)=CCCN(C)C1CCN(CCCc2c[nH]c3ccc(-n4cnnc4)cc23)CC1
II. c1ccc(NCC2CCN(CCCc3c[nH]c4ccc(-n5cnnc5)cc34)CC2)nc1
III. OC[C@H](NC1CCN(CCCc2c[nH]c3ccc(-n4ccnc4)cc23)CC1)c1ccccc1
Rank ascending by Selectivity. Hello, could you send the labels back in the order asked? Thank you.
II, I, III

a. CC(=O)Nc1ccc([C@@H](C)NC2CCN(CCCc3c[nH]c4ccc(-n5cnnc5)cc34)CC2)cc1
b. CN(C1CCN(CCCc2c[nH]c3ccc(-n4cnnc4)cc23)CC1)S(=O)(=O)c1ccccc1
Hi team, can someone confirm which has the larger Selectivity: a or b ? Thanks. Which one? Tell me its label.
a

====

system: 5-hydroxytryptamine receptor 7 (Rattus norvegicus, UniProt P32305)
Sequence (P32305 whole entry): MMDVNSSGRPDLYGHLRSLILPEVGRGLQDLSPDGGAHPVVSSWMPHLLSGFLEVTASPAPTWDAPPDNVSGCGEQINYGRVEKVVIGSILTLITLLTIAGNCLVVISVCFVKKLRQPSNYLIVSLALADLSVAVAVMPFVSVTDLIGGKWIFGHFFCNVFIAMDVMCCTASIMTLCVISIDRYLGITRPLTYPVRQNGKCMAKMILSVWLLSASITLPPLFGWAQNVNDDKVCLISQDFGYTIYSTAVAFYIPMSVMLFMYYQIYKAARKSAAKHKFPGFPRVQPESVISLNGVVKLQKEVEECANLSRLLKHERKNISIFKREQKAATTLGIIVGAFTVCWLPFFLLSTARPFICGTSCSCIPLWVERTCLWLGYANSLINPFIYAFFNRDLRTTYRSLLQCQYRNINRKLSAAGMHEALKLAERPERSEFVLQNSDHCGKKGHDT
protocol: Compound was tested for the displacement of [3H]5-HT binding to cloned rat 5-hydroxytryptamine 7 receptor stably expressed in CHO cells
endpoint_name: pIC50
To interpret pIC50, take it as minus log10 of a concentration measured in moles per litre.

Determine its reported pIC50: OC[C@H](NC1CCN(CCCc2c[nH]c3ccc(-n4cnnc4)cc23)CC1)c1ccc(F)cc1
6.27

====

system: 5-hydroxytryptamine receptor 1B (Homo sapiens)
Sequence (P28222 whole entry): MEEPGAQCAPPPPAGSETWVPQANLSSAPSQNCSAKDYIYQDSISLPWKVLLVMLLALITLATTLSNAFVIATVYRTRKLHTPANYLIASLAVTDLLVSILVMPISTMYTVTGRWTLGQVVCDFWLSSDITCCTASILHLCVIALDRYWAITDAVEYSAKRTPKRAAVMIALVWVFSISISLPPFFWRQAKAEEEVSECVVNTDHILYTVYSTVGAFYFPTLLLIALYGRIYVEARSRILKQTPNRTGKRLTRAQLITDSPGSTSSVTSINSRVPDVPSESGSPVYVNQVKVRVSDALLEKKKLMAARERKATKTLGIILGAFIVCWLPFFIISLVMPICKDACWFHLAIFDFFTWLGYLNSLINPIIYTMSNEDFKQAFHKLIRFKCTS
protocol: Displacement of [3H]5-HT binding to cloned 5-hydroxytryptamine 1B receptor stably expressed in CHO cells
Type: cell-based
endpoint_name: IC50 (nM)

P. O[C@@H]1Cc2ccccc2[C@H]1NC1CCN(CCCc2c[nH]c3ccc(-n4cnnc4)cc23)CC1
Q. Oc1nc2ccccc2n1C1CCN(CCCc2c[nH]c3ccc(-n4cnnc4)cc23)CC1
R. C[C@@H](O)[C@H](NC1CCN(CCCc2c[nH]c3ccc(-n4cnnc4)cc23)CC1)c1ccccc1
Which order do these fall in by IC50? Give them lowest to highest. Hello, could you send the labels back in the order asked? Thank you.
R, Q, P
(R: 48 nM, Q: 74 nM, P: 210 nM)

I. CNS(=O)(=O)Cc1ccc2[nH]cc(CCCN3CCC(N[C@H](C)c4ccccc4)CC3)c2c1
II. CC(=O)Nc1ccc([C@@H](C)NCC2CCN(CCCc3c[nH]c4ccc(-n5cnnc5)cc34)CC2)cc1
Of the pair I and II , name the member with the lesser recorded IC50. Which one? Tell me its label.
II

a. CN(C)C[C@H](NC1CCN(CCCc2c[nH]c3ccc(-n4cnnc4)cc23)CC1)c1ccccc1
b. CN(CC1CCN(CCCc2c[nH]c3ccc(-n4cnnc4)cc23)CC1)[C@@H](CO)c1ccccc1
c. CC(C)=CCCN(C)C1CCN(CCCc2c[nH]c3ccc(-n4cnnc4)cc23)CC1
d. c1ccc(C2CCCCN2C2CCN(CCCc3c[nH]c4ccc(-n5cnnc5)cc34)CC2)cc1 (stereo not given)
e. COC[C@H](NC1CCN(CCCc2c[nH]c3ccc(Cn4cncn4)cc23)CC1)c1ccc(F)cc1
Highest IC50 first, then in falling order down to the smallest. Hello, could you send the labels back in the order asked? Thank you.
e, d, b, c, a
(e: 1200 nM, d: 410 nM, b: 85 nM, c: 24 nM, a: 13 nM)

A. CC(=O)Nc1ccc(CCN(C)C2CCN(CCCc3c[nH]c4ccc(-n5cnnc5)cc34)CC2)cc1
B. OC[C@H](NC1CCN(CCCc2c[nH]c3ccc(-n4ccnc4)cc23)CC1)c1ccccc1
C. CC(=O)Nc1ccc(CN(C)CC2CCN(CCCc3c[nH]c4ccc(-n5cnnc5)cc34)CC2)cc1
D. O[C@H]1Cc2ccccc2C1NC1CCN(CCCc2c[nH]c3ccc(-n4cnnc4)cc23)CC1 (stereo not given in full)
Rank ascending by IC50. Hello, could you send the labels back in the order asked? Thank you.
C, A, B, D
(C: 24 nM, A: 66 nM, B: 100 nM, D: 300 nM)

====

system: 5-hydroxytryptamine receptor 1D (Homo sapiens, UniProt P28221)
Sequence (P28221 whole entry): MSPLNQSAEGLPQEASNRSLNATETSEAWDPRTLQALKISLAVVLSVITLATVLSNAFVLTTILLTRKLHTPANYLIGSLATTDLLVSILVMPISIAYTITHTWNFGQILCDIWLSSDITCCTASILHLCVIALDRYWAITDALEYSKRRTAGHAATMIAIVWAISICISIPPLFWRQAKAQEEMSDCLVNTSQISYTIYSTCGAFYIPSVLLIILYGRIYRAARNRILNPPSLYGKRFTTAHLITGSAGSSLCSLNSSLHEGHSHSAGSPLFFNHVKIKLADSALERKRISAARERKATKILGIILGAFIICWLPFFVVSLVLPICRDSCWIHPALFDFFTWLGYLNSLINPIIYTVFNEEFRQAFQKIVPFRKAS
protocol: Binding affinity at human cloned 5-hydroxytryptamine 1D receptor stably expressed in CHO cells by [3H]5-HT displacement.
Type: cell-based
endpoint_name: IC50 (nM)

1) CN(C1CCN(CCCc2c[nH]c3ccc(-n4cnnc4)cc23)CC1)[C@@H](CO)c1ccccc1 :: 4.5
2) C[C@H](Cc1ccccc1)NC1CCN(CCCc2c[nH]c3ccc(-n4cnnc4)cc23)CC1 :: 5.5
3) CS(=O)(=O)NC[C@H](NC1CCN(CCCc2c[nH]c3ccc(-n4cnnc4)cc23)CC1)c1ccccc1 :: 15
4) C[C@@H](NC1CCN(CCCc2c[nH]c3ccc(-n4cnnc4)cc23)CC1)[C@@H](O)c1ccccc1 :: 12

A. CC(CO)(NC1CCN(CCCc2c[nH]c3ccc(-n4cnnc4)cc23)CC1)c1ccccc1 (centres undefined)
B. C[C@@H](NC1CCN(CCCc2c[nH]c3ccc(-n4cnnc4)cc23)CC1)[C@H](O)c1ccccc1
C. OC[C@H](Cc1ccccc1)NC1CCN(CCCc2c[nH]c3ccc(-n4cnnc4)cc23)CC1
D. OC[C@@H](NC1CCN(CCCc2c[nH]c3ccc(-n4cnnc4)cc23)CC1)c1ccccc1
Rank ascending by IC50. Hello, could you send the labels back in the order asked? Thank you.
C, D, A, B

====

system: 5-hydroxytryptamine receptor 5A (Homo sapiens)
Sequence (P47898 whole entry): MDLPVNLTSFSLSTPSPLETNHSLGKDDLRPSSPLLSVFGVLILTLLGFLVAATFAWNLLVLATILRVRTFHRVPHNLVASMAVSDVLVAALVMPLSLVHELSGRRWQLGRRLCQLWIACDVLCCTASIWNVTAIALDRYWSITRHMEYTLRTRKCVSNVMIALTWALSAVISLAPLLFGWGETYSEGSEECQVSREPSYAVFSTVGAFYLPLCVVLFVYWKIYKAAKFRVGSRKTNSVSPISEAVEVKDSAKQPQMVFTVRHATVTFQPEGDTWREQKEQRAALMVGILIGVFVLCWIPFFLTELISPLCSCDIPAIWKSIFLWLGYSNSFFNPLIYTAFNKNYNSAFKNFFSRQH
protocol: Compound was tested for the displacement of [3H]5-HT binding to cloned human 5-hydroxytryptamine 5A receptor stably expressed in CHO cells
endpoint_name: IC50

Determine its reported IC50: OC[C@H](NC1CCN(CCCc2c[nH]c3ccc(-n4cnnc4)cc23)CC1)c1ccc(F)cc1
> 10 µM

====

system: 5-hydroxytryptamine receptor 1D (Homo sapiens)
protocol: Displacement of [3H]5-HT binding to cloned human 5-hydroxytryptamine 1D receptor stably expressed in CHO cells
Assay type: cell-based
endpoint_name: IC50 (nM)

1) O=S(=O)(NCC1CCN(CCCc2c[nH]c3ccc(-n4cnnc4)cc23)CC1)c1ccccc1 :: 6.2

I. CN(CC1CCN(CCCc2c[nH]c3ccc(-n4cnnc4)cc23)CC1)[C@@H](CO)c1ccccc1
II. OC[C@H](NC1CCN(CCCc2c[nH]c3ccc(-n4ccnc4)cc23)CC1)c1ccccc1
III. OC[C@H](NC1CCN(CCCc2c[nH]c3ccc(Cn4cncn4)cc23)CC1)c1ccccc1
IV. Oc1nc2ccccc2n1C1CCN(CCCc2c[nH]c3ccc(-n4cnnc4)cc23)CC1
Rank ascending by IC50. Hello, could you send the labels back in the order asked? Thank you.
II, IV, I, III
(II: 0.7 nM, IV: 1.2 nM, I: 6 nM, III: 23 nM)

====

system: 5-hydroxytryptamine receptor 1D (Homo sapiens, UniProt P28221)
protocol: Displacement of [3H]5-HT binding to cloned human 5-hydroxytryptamine 1D receptor stably expressed in CHO cells
Format: cell-based
pIC50: −log10 of the molar value.
endpoint_name: pIC50

1) c1cc(CNC2CCN(CCCc3c[nH]c4ccc(-n5cnnc5)cc34)CC2)co1 :: 8.35
2) c1ccc2c(c1)CCC2NC1CCN(CCCc2c[nH]c3ccc(-n4cnnc4)cc23)CC1 (centres undefined) :: 8.05
3) CN(C1CCN(CCCc2c[nH]c3ccc(-n4cnnc4)cc23)CC1)S(=O)(=O)c1ccccc1 :: 8.82
4) C[C@@H](NCC1CCN(CCCc2c[nH]c3ccc(-n4cnnc4)cc23)CC1)c1ccccc1 :: 8.85
5) COC[C@H](NC1CCN(CCCc2c[nH]c3ccc(-n4cnnc4)cc23)CC1)c1ccc(F)cc1 :: 8.85
6) CN(Cc1ccsc1)C1CCN(CCCc2c[nH]c3ccc(-n4cnnc4)cc23)CC1 :: 8.82

1. OC[C@@H](NCC1CCN(CCCc2c[nH]c3ccc(-n4cnnc4)cc23)CC1)c1ccccc1
2. c1cc(CNC2CCN(CCCc3c[nH]c4ccc(-n5cnnc5)cc34)CC2)ccn1
3. CNS(=O)(=O)Cc1ccc2[nH]cc(CCCN3CCC(N[C@H](C)c4ccccc4)CC3)c2c1
Highest pIC50 first, then in falling order down to the smallest. Hello, could you send the labels back in the order asked? Thank you.
1, 2, 3

Where these numbers come from: ChEMBL document CHEMBL1132157
